The reported numbers originate from patent US20260109712A1.

test: Mouse pharmacokinetics studies; type: in vivo, CD-1 mice; details: mouse, in vivo
Listed here: items and their measured F.
assay_metric: F (%)

compound_structure	assay_value
CO[C@H]1/C=C/O[C@@]2(C)Oc3c(C)c(O)c4c(c3C2=O)C2=NC3(CCN(CC(C)C)CC3)NC2=C(NC(=O)/C(C)=C/C=C/[C@H](C)[C@H](O)[C@@H](C)[C@@H](O)[C@@H](C)[C@H](OC(=O)c2cscn2)[C@@H]1C)C4=O	77
CO[C@H]1/C=C/O[C@@]2(C)Oc3c(C)c(O)c4c(c3C2=O)C2=NC3(CCN(CC(C)C)CC3)NC2=C(NC(=O)/C(C)=C/C=C/[C@H](C)[C@H](O)[C@@H](C)[C@@H](O)[C@@H](C)[C@H](OC(=O)Nc2ccccc2)[C@@H]1C)C4=O	38
CO[C@H]1/C=C/O[C@@]2(C)Oc3c(C)c(O)c4c(c3C2=O)C2=NC3(CCN(CC(C)C)CC3)NC2=C(NC(=O)/C(C)=C/C=C/[C@H](C)[C@H](O)[C@@H](C)[C@@H](O)[C@@H](C)[C@H](OC(=O)Nc2nncs2)[C@@H]1C)C4=O	45
CO[C@H]1/C=C/O[C@@]2(C)Oc3c(C)c(O)c4c(c3C2=O)C2=NC3(CCN(CC(C)C)CC3)NC2=C(NC(=O)/C(C)=C/C=C/[C@H](C)[C@H](O)[C@@H](C)[C@@H](O)[C@@H](C)[C@H](OC(=O)NC2CCN(Cc3ccccc3)CC2)[C@@H]1C)C4=O	35
CO[C@H]1/C=C/O[C@@]2(C)Oc3c(C)c(O)c4c(c3C2=O)C2=NC3(CCN(CC(C)C)CC3)NC2=C(NC(=O)/C(C)=C/C=C/[C@H](C)[C@H](O)[C@@H](C)[C@@H](O)[C@@H](C)[C@H](OC(=O)Nc2ccncc2)[C@@H]1C)C4=O	63
CO[C@H]1/C=C/O[C@@]2(C)Oc3c(C)c(O)c4c(c3C2=O)C2=NC3(CCN(CC(C)C)CC3)NC2=C(NC(=O)/C(C)=C/C=C/[C@H](C)[C@H](O)[C@@H](C)[C@@H](O)[C@@H](C)[C@H](OC(=O)Nc2cnccn2)[C@@H]1C)C4=O	73

---

experiment: Plasma protein binding assay (rapid equilibrium dialysis); format: in vitro ADME; settings: plasma
assay_metric: plasma unbound fraction (%)

compound_structure	assay_metric	assay_value
CO[C@H]1/C=C/O[C@@]2(C)Oc3c(C)c(O)c4c(c3C2=O)C2=NC3(CCN(CC(C)C)CC3)NC2=C(NC(=O)/C(C)=C/C=C/[C@H](C)[C@H](O)[C@@H](C)[C@@H](O)[C@@H](C)[C@H](OC(=O)c2ccc(-c3ccccc3)cc2)[C@@H]1C)C4=O	plasma unbound fraction	0
CO[C@H]1/C=C/O[C@@]2(C)Oc3c(C)c(O)c4c(c3C2=O)C2=NC3(CCN(CC(C)C)CC3)NC2=C(NC(=O)/C(C)=C/C=C/[C@H](C)[C@H](O)[C@@H](C)[C@@H](O)[C@@H](C)[C@H](OC(=O)c2ccc(C(F)(F)F)cc2)[C@@H]1C)C4=O	plasma unbound fraction	0
CO[C@H]1/C=C/O[C@@]2(C)Oc3c(C)c(O)c4c(c3C2=O)C2=NC3(CCN(CC(C)C)CC3)NC2=C(NC(=O)/C(C)=C/C=C/[C@H](C)[C@H](O)[C@@H](C)[C@@H](O)[C@@H](C)[C@H](OC(=O)c2ccncn2)[C@@H]1C)C4=O	plasma unbound fraction	7.22
COc1ccc(C(=O)O[C@H]2[C@H](C)[C@H](O)[C@H](C)[C@@H](O)[C@@H](C)/C=C/C=C(\C)C(=O)NC3=C4NC5(CCN(CC(C)C)CC5)N=C4c4c(c(O)c(C)c5c4C(=O)[C@@](C)(O/C=C/[C@H](OC)[C@H]2C)O5)C3=O)cc1	plasma unbound fraction	0
CO[C@H]1/C=C/O[C@@]2(C)Oc3c(C)c(O)c4c(c3C2=O)C2=NC3(CCN(CC(C)C)CC3)NC2=C(NC(=O)/C(C)=C/C=C/[C@H](C)[C@H](O)[C@@H](C)[C@@H](O)[C@@H](C)[C@H](OC(=O)Nc2ccccc2)[C@@H]1C)C4=O	plasma unbound fraction	0.08
CO[C@H]1/C=C/O[C@@]2(C)Oc3c(C)c(O)c4c(c3C2=O)C2=NC3(CCN(CC(C)C)CC3)NC2=C(NC(=O)/C(C)=C/C=C/[C@H](C)[C@H](O)[C@@H](C)[C@@H](O)[C@@H](C)[C@H](OC(=O)c2cccc(Cl)c2)[C@@H]1C)C4=O	plasma unbound fraction	0
CO[C@H]1/C=C/O[C@@]2(C)Oc3c(C)c(O)c4c(c3C2=O)C2=NC3(CCN(CC(C)C)CC3)NC2=C(NC(=O)/C(C)=C/C=C/[C@H](C)[C@H](O)[C@@H](C)[C@@H](O)[C@@H](C)[C@H](OC(=O)NC2CCN(Cc3ccccc3)CC2)[C@@H]1C)C4=O	plasma unbound fraction	0.19
CO[C@H]1/C=C/O[C@@]2(C)Oc3c(C)c(O)c4c(c3C2=O)C2=NC3(CCN(CC(C)C)CC3)NC2=C(NC(=O)/C(C)=C/C=C/[C@H](C)[C@H](O)[C@@H](C)[C@@H](O)[C@@H](C)[C@H](OC(=O)c2ccnnc2)[C@@H]1C)C4=O	plasma unbound fraction	8.22
CO[C@H]1/C=C/O[C@@]2(C)Oc3c(C)c(O)c4c(c3C2=O)C2=NC3(CCN(CC(C)C)CC3)NC2=C(NC(=O)/C(C)=C/C=C/[C@H](C)[C@H](O)[C@@H](C)[C@@H](O)[C@@H](C)[C@H](OC(=O)C2CCCC2)[C@@H]1C)C4=O	plasma unbound fraction	0.05
COc1ccccc1NC(=O)O[C@H]1[C@H](C)[C@H](O)[C@H](C)[C@@H](O)[C@@H](C)/C=C/C=C(\C)C(=O)NC2=C3NC4(CCN(CC(C)C)CC4)N=C3c3c(c(O)c(C)c4c3C(=O)[C@@](C)(O/C=C/[C@H](OC)[C@H]1C)O4)C2=O	plasma unbound fraction	0.12
CO[C@H]1/C=C/O[C@@]2(C)Oc3c(C)c(O)c4c(c3C2=O)C2=NC3(CCN(CC(C)C)CC3)NC2=C(NC(=O)/C(C)=C/C=C/[C@H](C)[C@H](O)[C@@H](C)[C@@H](O)[C@@H](C)[C@H](OC(=O)c2ccc(F)cc2)[C@@H]1C)C4=O	plasma unbound fraction	0.02
CO[C@H]1/C=C/O[C@@]2(C)Oc3c(C)c(O)c4c(c3C2=O)C2=NC3(CCN(CC(C)C)CC3)NC2=C(NC(=O)/C(C)=C/C=C/[C@H](C)[C@H](O)[C@@H](C)[C@@H](O)[C@@H](C)[C@H](OC(=O)C2CCCCC2)[C@@H]1C)C4=O	plasma unbound fraction	0.03
CO[C@H]1/C=C/O[C@@]2(C)Oc3c(C)c(O)c4c(c3C2=O)C2=NC3(CCN(CC(C)C)CC3)NC2=C(NC(=O)/C(C)=C/C=C/[C@H](C)[C@H](O)[C@@H](C)[C@@H](O)[C@@H](C)[C@H](OC(=O)Nc2nncs2)[C@@H]1C)C4=O	plasma unbound fraction	5.30
CO[C@H]1/C=C/O[C@@]2(C)Oc3c(C)c(O)c4c(c3C2=O)C2=NC3(CCN(CC(C)C)CC3)NC2=C(NC(=O)/C(C)=C/C=C/[C@H](C)[C@H](O)[C@@H](C)[C@@H](O)[C@@H](C)[C@H](OC(=O)c2ccc(Cl)cc2)[C@@H]1C)C4=O	plasma unbound fraction	0.01
CO[C@H]1/C=C/O[C@@]2(C)Oc3c(C)c(O)c4c(c3C2=O)C2=NC3(CCN(CC(C)C)CC3)NC2=C(NC(=O)/C(C)=C/C=C/[C@H](C)[C@H](O)[C@@H](C)[C@@H](O)[C@@H](C)[C@H](OC(=O)c2ccccn2)[C@@H]1C)C4=O	plasma unbound fraction	2.95
